B1: MNAT1 (parent)
chain: SLREYNDFLEEVEEIVFNLTNNVD

- Variants of: B1
- test description: protein stability index of a GFP-peptide fusion (GPS, HEK-293T) (PSI 1-6); higher = more stable;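 further: lentivirally expressed fusions sorted by FACS into six bins by GFP to DsRed ratio, PSI derived from sequencing read proportions per bin multiplied by bin number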
- assay context: c terminus: a fixed tail appended
Note to self: values exactly at 2 are Met. So protein stability index at or above 2 is Met, below is Not met.

Answered cases to consult:
1. L19N    Met
2. N21I    Not met
3. E14D    Met
4. L2H    Met
5. N18F    Met
6. Y5R    Met
7. Y5I    Met
8. Y5N    Met
9. I15C    Met
10. E11G    Met

Exam item: Can "L2Q" be said to have protein stability index at or above 2?
Marked response: Met

Exam item: Can "N6P" be said to have protein stability index at or above 2?
Marked response: Met

Exam item: Can "R3M" be said to have protein stability index at or above 2?
Marked response: Not met

Exam item: Can "S1I" be said to have protein stability index at or above 2?
Marked response: Met
